The reported measurements were obtained from ChEMBL document CHEMBL1149526.

pIC50: −log10 of the molar value.
Quick record: pIC50, Peroxisome proliferator-activated receptor alpha (Homo sapiens).
Experimental endpoint: pIC50

The examples below pair each entry with its known result.
Cc1cc2c(CC(=O)O)csc2cc1OCc1ccccc1COc1ccc(C(F)(F)F)cc1 | 5.33
O=C(O)Cc1csc2cc(OCc3cc(-c4ccc(C(F)(F)F)cc4)on3)cc(Cl)c12 | 5.87
O=C(O)Cc1coc2cc(OCc3cc(-c4ccc(C(F)(F)F)cc4)on3)ccc12 | 5.85

(a) O=C(O)Cc1csc2cc(OCc3cc(-c4ccc(Cl)cc4)on3)cc(Cl)c12
(b) O=C(O)Cc1csc2cc(OCc3cccc(COc4ccc(C(F)(F)F)cc4)c3)ccc12
(c) O=C(O)Cc1csc2cc(OCc3ccccc3COc3ccc(C(F)(F)F)cc3)ccc12
(d) Cc1nc(C(F)(F)F)sc1CSc1ccc2c(ccn2CC(=O)O)c1
Ask | Form: Sort by [pIC50] Order [ ascending ] // respond by listing labels in the order requested
Reply | c, a, b, d
(c: 5.10, a: 5.42, b: 6.02, d: 6.76)
